TESTED SYSTEM: HIV-1 MGRM-C-027 envelope glycoprotein (Env) (HIV-1)
TEST METHOD NOTES: cell-based or functional assay
IC50 neutralization values for the binders below.

BINDER	IC50 neutralization
PGT-130 (antibody, V domains shown) VH: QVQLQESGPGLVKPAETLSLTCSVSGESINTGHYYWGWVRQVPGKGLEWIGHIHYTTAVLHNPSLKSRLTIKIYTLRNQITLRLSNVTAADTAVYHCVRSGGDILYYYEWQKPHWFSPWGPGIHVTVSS VL: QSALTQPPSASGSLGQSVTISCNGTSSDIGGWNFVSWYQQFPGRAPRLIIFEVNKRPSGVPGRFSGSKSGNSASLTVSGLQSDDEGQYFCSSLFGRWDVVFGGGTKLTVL	0.0052 mg/L
PGT-135 (antibody, V domains shown) VH: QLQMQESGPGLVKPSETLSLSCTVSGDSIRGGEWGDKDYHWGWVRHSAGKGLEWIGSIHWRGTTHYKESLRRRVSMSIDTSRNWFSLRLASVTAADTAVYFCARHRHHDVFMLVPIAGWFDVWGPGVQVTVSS VL: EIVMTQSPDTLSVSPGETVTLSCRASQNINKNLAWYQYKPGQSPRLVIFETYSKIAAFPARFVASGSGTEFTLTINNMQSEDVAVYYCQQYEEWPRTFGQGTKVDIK	> 10 mg/L
PGT-136 (antibody, V domains shown) VH: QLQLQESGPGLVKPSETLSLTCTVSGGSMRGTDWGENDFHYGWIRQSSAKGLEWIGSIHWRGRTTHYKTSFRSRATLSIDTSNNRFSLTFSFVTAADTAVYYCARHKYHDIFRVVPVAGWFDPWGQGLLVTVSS VL: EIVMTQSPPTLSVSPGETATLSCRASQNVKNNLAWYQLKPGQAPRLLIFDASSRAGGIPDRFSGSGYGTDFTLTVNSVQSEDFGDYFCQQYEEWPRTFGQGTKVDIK	> 10 mg/L

Hey, just so you know, these numbers are from patent US20200024330A1.
